tested on: PF3D7_0420300 AP2 domain 1 (GST-tagged); assay: gcPBM binding intensity (ln(normalized median fluorescence intensity)); higher = stronger DNA binding
In all, about 25,000 sequences were measured (“ln(normalized median fluorescence intensity)”: median about 9.3, highest 2% from about 10 on). The sample holds the highest values, similar sequences and a random draw of the others, so the mix is not that of the screen.
Exercise: state measured gcPBM binding intensity (ln) for each of the sequences provided.
Field format: numeric only.

Ask: State the recorded gcPBM binding intensity (ln) for this entry: AATGCTATCATTAATGCACACATTTAAAATTAATAT [CACACA_site3548]
Reply: 9.22

Ask: State the recorded gcPBM binding intensity (ln) for this entry: AGATAAAAAAAGTACACACACACATATATATATATA [CACACA_site3072]
Reply: 9.82

Ask: State the recorded gcPBM binding intensity (ln) for this entry: TTTAAAAGATAAAACACACATACTAATAAAAAACAA [CACACA_site2556]
Reply: 9.71

Ask: State the recorded gcPBM binding intensity (ln) for this entry: ATATAATTATAAAATAAACACACATATATATTTATA [CACACA_site8039]
Reply: 9.48

Ask: State the recorded gcPBM binding intensity (ln) for this entry: ACATTTATATATAATTGTACCCTACATTCTCTTTTT [XGTACX_site189]
Reply: 9.5

Ask: State the recorded gcPBM binding intensity (ln) for this entry: AAAAAAAAAAAAAGTACACACATACAGATAAATATA [CACACA_site5067]
Reply: 9.66

Ask: State the recorded gcPBM binding intensity (ln) for this entry: TATATATATATACCAACACACATACATATATATATA [CACACA_site8530]
Reply: 9.68

Ask: State the recorded gcPBM binding intensity (ln) for this entry: AAAGATAAAAAAAGTACACACACACCGATATATATA [CACACA_site9006]
Reply: 10.2

Ask: State the recorded gcPBM binding intensity (ln) for this entry: TATATATATATATGTACACACACACCGATAAATAAA [CACACA_site8041]
Reply: 9.99

Ask: State the recorded gcPBM binding intensity (ln) for this entry: TTGTTAATAAAAATATTGGAAAGTTTATAAAATTTT [CACACA_negctrl_site1487]
Reply: 8.9

Ask: State the recorded gcPBM binding intensity (ln) for this entry: AAATGTACAGGACGCACACACATATTTATATTTATA [CACACA_site7689]
Reply: 9.67

Ask: State the recorded gcPBM binding intensity (ln) for this entry: CAACATTTGAGACACACACACATACAAACAAACAAA [CACACA_site7538]
Reply: 10

Ask: State the recorded gcPBM binding intensity (ln) for this entry: TGTTTATATAATATTCTACACACCAACAACAAACAT [CACACA_site8087]
Reply: 9.74

Ask: State the recorded gcPBM binding intensity (ln) for this entry: CAACATTTGAAACACACACACATACAAACAAACAAA [CACACA_site3306]
Reply: 10.2

Ask: State the recorded gcPBM binding intensity (ln) for this entry: GGCAACATTTGAAACACACACACATACAAACAAACA [CACACA_site3307]
Reply: 9.97

Ask: State the recorded gcPBM binding intensity (ln) for this entry: AACAGATAAAAGGGTACACACATATATACAAGTACA [CACACA_site7959]
Reply: 9.9

Ask: State the recorded gcPBM binding intensity (ln) for this entry: TGAAAAGATAAAAAAAGTACACACACACATATATAT [XGTACX_site6504]
Reply: 10.2

Ask: State the recorded gcPBM binding intensity (ln) for this entry: CACAAAAAGAAACACACACACATATATATATATATA [CACACA_site999]
Reply: 9.73

Ask: State the recorded gcPBM binding intensity (ln) for this entry: TATACATATATATACACACACACATATATATATATA [CACACA_site1299]
Reply: 9.95
